# Target or system: Endopeptidase 24.11 (Rattus norvegicus, UniProt P07861)
# Construct: rat urine was collected and desalted on Sephadex G-25; from tissue; host or cells: rat urine, desalted on Sephadex G-25
# Sequence (P07861 whole entry): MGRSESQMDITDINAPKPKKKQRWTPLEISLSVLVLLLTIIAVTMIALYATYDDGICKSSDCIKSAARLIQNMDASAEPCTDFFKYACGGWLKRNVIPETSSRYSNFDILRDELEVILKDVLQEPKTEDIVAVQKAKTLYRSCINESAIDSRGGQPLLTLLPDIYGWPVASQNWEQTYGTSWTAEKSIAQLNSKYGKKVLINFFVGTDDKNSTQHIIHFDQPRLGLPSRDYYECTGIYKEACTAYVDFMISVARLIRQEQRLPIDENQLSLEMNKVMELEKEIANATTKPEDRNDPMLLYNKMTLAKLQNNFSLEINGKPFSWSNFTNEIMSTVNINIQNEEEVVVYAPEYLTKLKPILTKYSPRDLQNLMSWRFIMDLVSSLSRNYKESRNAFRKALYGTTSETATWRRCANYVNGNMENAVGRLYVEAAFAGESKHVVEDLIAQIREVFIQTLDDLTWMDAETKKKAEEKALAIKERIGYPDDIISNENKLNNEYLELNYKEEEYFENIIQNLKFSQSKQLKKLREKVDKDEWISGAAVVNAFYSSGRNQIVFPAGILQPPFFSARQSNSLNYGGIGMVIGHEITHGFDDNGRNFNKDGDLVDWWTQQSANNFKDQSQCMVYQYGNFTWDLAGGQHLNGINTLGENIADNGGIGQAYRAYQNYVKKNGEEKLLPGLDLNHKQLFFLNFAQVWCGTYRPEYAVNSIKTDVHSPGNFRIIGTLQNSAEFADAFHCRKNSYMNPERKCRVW
# Procedure summary: Inhibition of endopeptidase 24.11 (cleavage of rANP(99-126), HPLC)
# Format: biochemical
# Condition info: 20 nM; read-out: % Inhibition of Metabolite Formation
# Method: Endopeptidase 24.11 inactivates ANP by cleavage at the Cys^105 -Phe^106 amide bond. […] The frozen samples, incubated with or without inhibitor, were thawed and analyzed by HPLC to determine the concentration of starting rANP(99-126) and its degradation product. […] The effluent was monitored at 220 nm and the peptide peak heights measured. […]
Numbered stars: 1 amine (or outer) side, 2 acyl side, 3 side chain; on linkers, the order of the positions; unused ones are H or OH. Square brackets hold non-standard residues; d marks the D form. Peptide text beside a SMILES is read from it. * marks the point of attachment. X2 = O=C(Cc1ccc(N[*:1])cc1)[*:2]; X1 = O=C(C(CS)Cc1ccccc1)*
Value kind: inhibition at 0.02 µM
Dear colleague, please send the value followed by its unit.

Examples with their reported inhibition at 0.02 µM follow.
O=C(O)CNC(=O)C(CS)Cc1ccccc1 (stereo not shown) [Thiorphan, thiorphan, reference compound] :: 12%
CC(C)C[C@H](NP(=O)(O)O[C@@H]1O[C@@H](C)[C@H](O)[C@@H](O)[C@H]1O)C(=O)N[C@@H](Cc1c[nH]c2ccccc12)C(=O)O [Phosphoramidon, phosphoramidon, reference compound] :: 0%
CC[C@H](C)[C@H](NC(=O)[C@H](CCCNC(=N)N)NC(=O)[C@H](CC(=O)O)NC(=O)[C@@H](NC(=O)[C@H](CCCNC(=N)N)NC(=O)CNC(=O)CNC(=O)C(CS)Cc1ccccc1)[C@@H](C)CC)C(N)=O (stereo partly drawn) [Analog 1, MBP-G-G-R-I-D-R-I-NH2] (X1-GGRIDRI-NH2) :: 0%

Short answer please: inhibition at 0.02 µM, Endopeptidase 24.11 (Rattus norvegicus, UniProt P07861), entry CC[C@H](C)[C@H](NC(=O)[C@H](CCCNC(=N)N)NC(=O)[C@H](CC(=O)O)NC(=O)[C@@H](NC(=O)[C@H](CCCNC(=N)N)NC(=O)Cc1ccc(NC(=O)C(CS)Cc2ccccc2)cc1)[C@@H](C)CC)C(N)=O (stereo partly drawn) [Analog 122, MBP-4-APA--R--I--D--R--I--NH2] (X1-[X2]RIDRI-NH2)
12%
